B1: NFE2L1 (parent)
chain: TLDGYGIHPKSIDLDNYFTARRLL

Variants of: B1
experiment_notes: protein stability index of a GFP-peptide fusion (GPS, HEK-293T) (PSI 1-6); higher = more stable;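 also: lentivirally expressed fusions sorted by FACS into six bins by GFP to DsRed ratio, PSI derived from sequencing read proportions per bin multiplied by bin number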
experimental_conditions: c terminus: a fixed tail appended
Measured protein stability index, listed per entry.
outcome_measure: protein stability index

monomer_sequence	outcome_measure	meas_value
TLDGYGIHPKSIDLENYFTARRLL [D15E]	protein stability index	1.96
TLDGYGIHPFSIDLDNYFTARRLL [K10F]	protein stability index	1.87
TLDGYGIHPKSIDLMNYFTARRLL [D15M]	protein stability index	1.84
TLDGYGIHVKSIDLDNYFTARRLL [P9V]	protein stability index	1.5
TGDGYGIHPKSIDLDNYFTARRLL [L2G]	protein stability index	1.86
TLDGYGIHPKSIWLDNYFTARRLL [D13W]	protein stability index	2.21
TLIGYGIHPKSIDLDNYFTARRLL [D3I]	protein stability index	2.06
TLDGYFIHPKSIDLDNYFTARRLL [G6F]	protein stability index	2.69
TLDGYGQHPKSIDLDNYFTARRLL [I7Q]	protein stability index	2.35
TLDGKGIHPKSIDLDNYFTARRLL [Y5K]	protein stability index	1.85
THDGYGIHPKSIDLDNYFTARRLL [L2H]	protein stability index	1.92

The reported numbers originate from the supplement of paper PMC10567573.
